Item-by-item account of growth inhibition
# Assay: inhibition of 3D7 malaria parasite growth – strain 3D7 (AID 2306);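 note: 0% = DMSO wells and 100% = chloroquine plus artemisinin control wells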
# Cond: P. falciparum 3D7 erythrocytic growth, LDH absorbance, 72 h; at 2 µM; stronger effect = higher value
Property: growth inhibition (%)

compound="CC(=O)c1cccc2[nH]c(C(=O)NC3CCC(CCN4CCc5ccc(C#N)cc5C4)CC3)cc12 (centres undefined)" obs_value=96
compound=COc1ccc(C(=O)N2CCN(c3ccc([N+](=O)[O-])c(NC4CC4)c3)CC2)cc1Br obs_value=99
compound=CCOC(=O)c1cncc(/C=C/c2cc(C)cnc2N)c1 obs_value=86
compound=O=C(Nc1ccc(Cl)cc1)Nc1cccc(-c2cccc(-c3nc4ccc(C(F)(F)F)cc4[nH]3)c2)c1 obs_value=99
compound=Cc1cc(C(F)(F)F)cc(-n2ncc(-c3ccc(C(=O)NCc4ccccc4N)cc3)c2N)n1 obs_value=99
compound=Cc1cc(-c2cccc(CNC3CCN(C)CC3)c2)ccc1S(=O)(=O)NC1CCC1 obs_value=101
compound=O=C(Cc1cccc(Cl)c1)Nc1cccc(-c2c[nH]c3nc(Nc4ccccc4)ncc23)c1 obs_value=99
compound=COc1ccc(Cl)cc1N1CCN(CCCNC(=O)c2ccc(-c3nc4cc(Cl)c(Cl)cc4[nH]3)c(C)c2)CC1 obs_value=101
compound=O=C(c1cc(C(=O)Nc2ccc(F)cc2)c(=O)n(-c2ccc(F)cc2)c1)c1cc(Cl)ccc1O obs_value=101
compound=CN(CCCN)CCCNc1ccnc2cc(Cl)ccc12 obs_value=101
compound=CC(C)(C)c1ccc(CN2CCC(NC(=O)c3ccc(-c4cccc(Cl)c4)s3)CC2)cc1 obs_value=99
compound=CCOc1ccc2c(c1)N(C(=O)C=Cc1ccccc1)C(C)(C)c1ssc(=S)c1-2 obs_value=83
compound=CCN(CC)CCN(Cc1ccc(-c2ccc(Cl)s2)cc1)C(=O)Cn1c(CCc2cccc(F)c2F)nc(=O)c2ccccc21 obs_value=96
compound=CCN(CC)c1nc(Nc2cc(C)ccc2C)nc(Nc2ccccc2O)n1 obs_value=101
compound="CCC(C)(C)C1CCc2nc(N)nc(N)c2C1 (centres undefined)" obs_value=95
compound="CC(C)(C)COC(=O)c1ccc(NC(=O)N[C@@H](Cc2ccc(O)cc2)C(=O)NC2CCN(Cc3ccc(O)cc3)C2)cc1 (some centres undefined)" obs_value=94
compound=Cc1cc(NN=Cc2ccc(F)cc2)c2cc(C(F)(F)F)ccc2n1 obs_value=101
compound=Cc1cc(NC(=O)Nc2cccc(Cl)c2Cl)c2ccccc2n1 obs_value=96
compound=COc1ccc2cc(CNCCCCCCNCc3ccc4cc(OC)ccc4c3)ccc2c1 obs_value=100
compound=Cc1ccc2c(c1)nc(N)n2C[C@H](O)c1ccccc1 obs_value=100
compound=NCc1ccc(CNCc2ccc(-c3ccc(-c4nc5ccc(F)cc5[nH]4)cc3)cc2)cc1 obs_value=100
compound=CC(=O)Nc1cccc(/C=C/C(=O)N2CCC(N3CCCCC3)CC2)c1 obs_value=96
compound=O=[N+]([O-])c1ccc(N2CCCN(C(=S)Nc3ccc(F)cc3Br)CC2)nc1 obs_value=100
compound="CC(Cc1ccc(OCCN2CCN(c3ccc(Cl)cc3)CC2)cc1)NCC(O)c1cccc(C(F)(F)F)c1 (centres undefined)" obs_value=99
compound=c1ccc2[nH]c(-c3ccc(-c4ccc(CN5CCN(c6ccncc6)CC5)cc4)cc3)nc2c1 obs_value=101
compound=COc1ccc2c(NN=Cc3ccccc3Cl)cc(C)nc2c1 obs_value=101
compound=O=C(Nc1ccc(-c2nc3ccccc3[nH]2)cc1)c1ccc([N+](=O)[O-])s1 obs_value=101
compound=CC1(C)N=C(N)N=C(N)N1OCCCOc1cccc2ccccc12 obs_value=95
compound=CC(=O)Nc1nc(-c2ccccc2)[nH]c1C(N)=O obs_value=99
compound=CCc1cc2c(O)c([N+](=O)[O-])c(=O)oc2cc1OCCCCCOc1cc2oc(=O)c([N+](=O)[O-])c(O)c2cc1CC obs_value=99
compound=Cc1cc(C2CCN(CCCCNC(=O)c3ccc(NC(=O)c4ccc(Cl)cc4)cc3)CC2)c(C)cc1OCc1ccccn1 obs_value=96
compound=CCc1cn2c3c(cc(C(=O)N[C@@H](Cc4ccccc4)[C@H](O)CNC(C)(C)c4cccc(OC)c4)cc13)N(C)S(=O)(=O)C2 obs_value=98
compound=Nc1c2ccccc2nc2cc(Cl)ccc12 obs_value=103
compound="N=c1n(CCN2CCCCC2)c2ccccc2n1CC(O)c1ccc(Cl)c(Cl)c1 (centres undefined)" obs_value=97
compound=Cc1cc(NCC(c2ccccc2)c2ccccc2)nc(NCc2ccc(C(F)(F)F)cc2)n1 obs_value=102
compound=O=C(CSc1n[nH]c(-c2ccccc2Br)n1)c1c[nH]c2ccccc12 obs_value=100
compound=O=C(Nc1cccc(CN2CCCN(Cc3ncc[nH]3)CC2)c1)c1ccc2ccccc2c1 obs_value=100
compound=Cc1cccc2[nH]c(-c3cccc(-c4ccc(NC(=O)Nc5ccc6c(c5)OCO6)cc4)c3)nc12 obs_value=101
compound="CCC1(C)N=C(N)N=C(N)N1c1ccccc1 (centres undefined)" obs_value=98
